# reported Activity; entries follow
Target: Cannabinoid receptor 2 (Homo sapiens)
Test: Agonist activity at CBR2 (unknown origin) assessed as [35S]GTPgammaS binding at 10 uM by […] assay relative to control
Type: functional
Provide only the numeric value, understood in %.

• O=C(NC(=S)Nc1ccc(S(=O)(=O)NCc2ccco2)cc1)c1ccc(-c2ccccc2)cc1 = 97
• CN(C)S(=O)(=O)c1ccc(NC(=S)NC(=O)c2ccc(-c3ccccc3)cc2)cc1 = 90
• CC(=O)NS(=O)(=O)c1ccc(NC(=S)NC(=O)c2cccc3ccccc23)cc1 = 94
• O=C(NC(=S)Nc1ccc(S(=O)(=O)NCCc2ccccc2)cc1)c1ccc(-c2ccccc2)cc1 = 94
• O=C(NC(=S)Nc1ccc(S(=O)(=O)NCc2ccc(I)cc2)cc1)c1ccc(-c2ccccc2)cc1 = 95
• Cc1ccc(CNS(=O)(=O)c2ccc(NC(=S)NC(=O)c3ccc(-c4ccccc4)cc3)cc2)cc1 = 118
• O=C(NCCc1ccccc1)c1ccc(NC(=S)NC(=O)c2ccc(-c3ccccc3)cc2)cc1 = 99
• CCCNS(=O)(=O)c1ccc(NC(=S)NC(=O)c2ccc(-c3ccccc3)cc2)cc1 = 85
• C=CCN(CC=C)S(=O)(=O)c1ccc(NC(=S)NC(=O)c2ccc([N+](=O)[O-])cc2)cc1 = 107
• O=C(NC(=S)Nc1ccc(S(=O)(=O)NCc2ccccc2)cc1)c1ccc(-c2ccccc2)cc1 = 93

We next turn to a different compound, shown below.
[Q] What Activity value was documented for this compound, O=C(NC(=S)Nc1ccc(S(=O)(=O)Nc2ccc(Cl)cc2)cc1)c1ccc(-c2ccccc2)cc1 ?
[A] 94
